- study-target: human IgG (Chugai Pharmaceutical Co., Ltd.) (human)
- experiment: SPR (BIAcore T200), IgG immobilised; equilibrium value
*1 amine or outer side, *2 acyl side, *3 side chain or, on linkers, in order; H or OH if unused. Bridges are numbered along the chain shown (N, C = ends). Primed or numbered codes have the meaning given here. The star is where a group is joined. Biotin = O=C1N[C@H]2[C@H](CS[C@H]2CCCCC(=O)*)N1; Glutaryl = O=C(CCCC(=O)[*:2])[*:1]; HOOC(CH2)6CO = O=C(O)CCCCCCC(=O)*; PEG4′ = not defined here
readout-label: pKd
Scale for pKd: -log10 of concentration given in mol/L; no unit attached.

Solved entries (count: 3):
binder	reported-result
{Biotin-PEG4′}-GPDCAYHRGELVWCTFH-NH2 (disulfide 4-14 (inferred)) [Type I IgG-binding peptide, …-NH2]	8.00
{Biotin-PEG4′}-GDDCAYHK(HOOC(CH2)6CO)GELVWCTFH-NH2 (disulfide 4-14 (inferred)) [Type I(R8K)-DSS-OH, GDDCAYHK(DSS-OH)…-NH2]	6.41
{Biotin-PEG4′}-GDDCAYHK(Glutaryl)GELVWCTFH-NH2 (disulfide 4-14 (inferred)) [Type I(R8K)-DSG-OH, GDDCAYHK(DSG-OH)…-NH2]	6.48

Moving on to the next binder.
INPUT: What pKd value was documented for this binder, {Biotin-PEG4′}-GDDCAYHKGELVWCTFH-NH2 (disulfide 4-14 (inferred)) [Type I(R8K) IgG-binding peptide, …-NH2] ?
OUTPUT: 6.88
